# Target: T1, Mouse Fc-human GDF15 (Mu IgG1Fc_Fxa_Hu GDF15) (human)
# T1 construct: Whole entry is the fusion: mouse IgG1 Fc, FXa site and linker, mature human GDF15; described as dimeric; also called Murine dimeric IgG1 Fc-human GDF-15 with FXa cleavage site; control human GDF15
# T1 chain: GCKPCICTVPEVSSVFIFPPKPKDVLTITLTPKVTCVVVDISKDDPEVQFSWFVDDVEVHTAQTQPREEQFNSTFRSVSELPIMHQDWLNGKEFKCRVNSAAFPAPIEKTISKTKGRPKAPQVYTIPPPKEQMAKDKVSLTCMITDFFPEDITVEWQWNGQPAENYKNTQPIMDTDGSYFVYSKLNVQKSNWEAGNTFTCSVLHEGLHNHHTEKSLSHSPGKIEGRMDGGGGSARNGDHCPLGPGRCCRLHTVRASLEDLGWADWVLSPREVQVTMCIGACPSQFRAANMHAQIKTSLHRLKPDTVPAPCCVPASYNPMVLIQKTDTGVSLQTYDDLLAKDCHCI
# Assay notes: SPR BIAcore T200; summary sentence for the clones of Table 6
pKd: −log10 of the molar value.
Assay readout: pKd

// known answers, use as guide
{"Binder": "GDF15_0297 (antibody, mouse IgG1, kappa, V domains shown, Tested in bivalent format; also called GDF15_297) VH: QVQLQQPGAELVKPGASVKMSCKASGYPFEGWYIHWVKQRPGQGLEWMGWNNPRTGLTNHAQKFQGKVTMTRDTSSSTAYMQLSSLTSEDSAVYYCARGVGADAAFDIWGQGTTLTVSS VL: DIVMTQSPSSLSVSAGEKVTMSCRSSQSLLWKHGYNYLDWYQQKPGQPPKLLIYLDRNRAHGVPDRFTGSGSGTDFTLTISSVQAEDLAVYYCMQSFETPITFGGGTKLEIKR", "pKd": "> 9.82"}
{"Binder": "GDF15_020 (antibody, human IgG1, kappa, V domains shown, Tested in bivalent format) VH: QVQLVQSGAEVKKPGSSVKVSCKASGYTFSDYNMDWVRQAPGQGLEWMGQINPNNGLANYNQKFQGRVTITADESTSTAYMELSSLRSEDTAVYYCAREAITTVGAMDYWGQGTLVTVSS VL: EIVLTQSPATLSLSPGERATLSCRASQNLHSYLAWYQQKPGQAPRLLIYDASTRADGIPARFSGSGSGTDFTLTISSLEPEDFAVYYCQQFWSDPYTFGQGTKVEIKR", "pKd": "> 9.82"}

Could you now look at the following binder, please?
Given item GDF15_0301 (antibody, mouse IgG1, kappa, V domains shown, Tested in bivalent format; also called GDF15_301; mAB2) VH: QVQLQQPGAELVKPGASVKMSCKASGYPFEGWYIHWVKQRPGQGLEWMGWNNPRTGLTNHAQKFQGKATLTVDTSSSTAYMQLSSLTSEDSAVYYCARGVGADAAFDIWGQGTTLTVSS VL: DIVLTQSPSSLSVSAGEKVTMSCRSSQSLLWKHGYNYLDWYQQKPGQPPKLLIYLDRNRAHGVPDRFTGSGSGTDFTLTISSVQAEDLAVYYCMQSFETPITFGGGTKLEIKR , the value recorded as its pKd is > 9.82
